Hello, the source for this data is patent US11945822B2, in case you need it.

# Tested on: OVCAR-3
# assayDetails: Cellular OVCAR-3 viability assay (CellTiter-Glo, 72 hours)
# Type: cell-based
# measurementParameters: Homo sapiens
Reported IC50 by item:

Field: example entries. Status: answers known.
- compound: "CC(C)c1cnn2c(NCc3ccccc3-c3nccc4ccccc34)nc(NC[C@H]3CCNC[C@@H]3O)nc12 [Compound 279]"
  IC50: "1 to 10 µM"
- compound: "CC(C)c1cnn2c(NCc3c(Cl)cccc3-c3ccc4ccccc4n3)nc(N3CCC(N)CC3)nc12 [Compound 194]"
  IC50: "1 to 10 µM"

Ask: API: value(readout= IC50, system= OVCAR-3, query= CC(C)c1cnn2c(N[C@@H](C)c3ccccc3-n3cc4ccccc4n3)nc(N3CCC(N)CC3)nc12 [Compound 183] )
Reply: 1 to 10 µM

Ask: Write down the reported IC50 of CC(C)c1cnn2c(NCc3ccccc3-c3cc4cccc(NC(=O)C5CC5)c4[nH]3)nc(N3CCC(N)CC3)nc12 [Compound 144] , test system: OVCAR-3.
Reply: 1 to 10 µM

Ask: Query the reported IC50 for OVCAR-3; item: CC(C)c1cnn2c(NCc3ccccc3-c3ccc4ccccc4n3)nc(N3CCC(N)CC3)nc12 [Compound 48]
Reply: 1 to 10 µM
